The entries below are paired with their reported TGI.
Test system: T-47D breast
protocol notes: NCI tumour cell line growth inhibition, 48 h

{"columns": ["compound", "TGI"],
 "data": [
  ["O=c1c2cc(-c3ccccc3)sc2nc2n1N=C(c1ccccc1)CS2", "> 100 µM"],
  ["CCOC(=O)C1(C(N)=O)C(=O)c2ccncc2C1=O (stereo not given)", "> 100 µM"],
  ["COc1ccc2nc3cc(Cl)ccc3c(NCCCN(Cc3cc(OC)c(OC)c(OC)c3)Cc3cc(OC)c(OC)c(OC)c3)c2c1", "47.4 µM"],
  ["Cc1ccc(C2=Nc3cc(C)c(Cl)cc3S(=O)(=O)NN2)cc1", "> 100 µM"],
  ["CCCCCCCCCCCCNC(C)=O", "66.3 µM"],
  ["CCOC(=O)c1ccc2[nH]c(-c3ccc(S(=O)(=O)F)cc3)cc(=O)c2c1", "> 100 µM"],
  ["O=C(Nc1ccc(Cl)c(Cl)c1)c1cccc(NC2=C(Cl)C(=O)N(Cc3ccccc3)C2=O)c1", "> 100 µM"],
  ["FC(F)(F)Oc1cccc(-c2cnc3ccc(-c4ccncc4)nn23)c1", "4.26 µM"],
  ["Cc1cccc(C(C)C)c1NC(=O)C(=O)CC(=O)c1sc(Nc2ccccc2Cl)nc1C", "> 100 µM"],
  ["O=C(O)c1cc2ccccc2c(N=Nc2ccccc2)c1O", "> 100 µM"]
]}
